- Tested on: E. coli CGSC 5633 (ToIC mutant)
- run-description: MIC, broth microdilution (CLSI), E. coli CGSC 5633
- Type: cell-based, Escherichia coli
- Parameters: unit not given beside the values
measured-quantity: MIC E. coli CGSC 5633
// no unit, no text: just the number

Some entries whose results are on file:
# compound, MIC E. coli CGSC 5633
rows = [
    ("Cc1cc(N(C)C2CCCCC2)nc2nc(N)nc(N)c12 [IV-d]", 0.125),
    ("Cc1c(Cc2ccccc2)c(NCc2ccc(F)c(F)c2)nc2nc(N)nc(N)c12 [II-b]", 0.125),
]

# ---- query compound ----
stdin: Could you share which MIC E. coli CGSC 5633 value was measured for Cc1cc(NCc2ccc3c(c2)OCO3)nc2nc(N)nc(N)c12 [III-m] ?
stdout: 0.5

====

- Tested on: Escherichia coli ATCC 25922
- run-description: MIC, broth microdilution (CLSI), E. coli ATCC 25922
- Type: cell-based
MIC E. coli ATCC 25922 reference
No unit in the answer, only the number.

# item-smiles, MIC E. coli ATCC 25922
rows = [
    ("Cc1cc(NCc2cc(F)cc(C(F)(F)F)c2)nc2nc(N)nc(N)c12", 16),
    ("COc1cc(CN(C)c2nc3nc(N)nc(N)c3c(C)c2C2CCCC2)cc(OC)c1", 32),
    ("Cc1c(C(C)C)c(NCc2cc(F)cc(C(F)(F)F)c2)nc2nc(N)nc(N)c12", 128),
    ("COc1ccc(CN(C)c2cc(C)c3c(N)nc(N)nc3n2)cc1OC", 64),
    ("Cc1c(N(C)C2CCCCC2)nc2nc(N)nc(N)c2c1C", 64),
]

Please turn your attention to the following entry.
stdin: Which MIC E. coli ATCC 25922 value belongs to "CN(c1nc2nc(N)nc(N)c2c2c1CCCC2)C1CCCCC1" ?
stdout: 128

====

- System: Streptococcus pyogenes ATCC 19615
- run-description: MIC, broth microdilution (CLSI), S. pyogenes
- Assay type: cell-based
measured-quantity: MIC S. pyogenes
Quick one: just the number, no unit, thanks!

The cases that follow already have their MIC S. pyogenes on record.
# item-smiles, study-system, MIC S. pyogenes
measured = [
    ("COc1cc(CN(C)c2nc3nc(N)nc(N)c3c3c2CCCC3)cc(OC)c1", "Streptococcus pyogenes ATCC 19615", 2),
    ("CCCc1cc(N(C)C2CCCCC2)nc2nc(N)nc(N)c12", "Streptococcus pyogenes ATCC 19615", 1),
    ("Cc1c(Cc2ccccc2)c(NCc2ccc(F)c(F)c2)nc2nc(N)nc(N)c12", "Streptococcus pyogenes ATCC 19615", 1),
    ("Cc1cc(NCc2ccc(F)cc2C(F)(F)F)nc2nc(N)nc(N)c12", "Streptococcus pyogenes ATCC 19615", 4),
    ("Cc1cc(NCc2ccc(Cl)c(C(F)(F)F)c2)nc2nc(N)nc(N)c12", "Streptococcus pyogenes ATCC 19615", 2),
    ("Cc1cc(NCc2cc(C(F)(F)F)ccc2F)nc2nc(N)nc(N)c12", "Streptococcus pyogenes ATCC 19615", 16),
]

stdin: Which MIC S. pyogenes reading was recorded for the compound "Cc1cc(N(C)C2CCCCC2)nc2nc(N)nc(N)c12" ?
stdout: 32

stdin: I am curious: what MIC S. pyogenes value has been reported for "CCCCc1c(NCc2ccc(F)c(F)c2)nc2nc(N)nc(N)c2c1C" ?
stdout: 2

stdin: Given the compound "CN(c1nc2nc(N)nc(N)c2c2c1CCCC2)C1CCCCC1" , what is its reported MIC S. pyogenes?
stdout: 4

stdin: Name the reported MIC S. pyogenes value associated with the compound "Cc1cc(NCc2cc(C(F)(F)F)cc(C(F)(F)F)c2)nc2nc(N)nc(N)c12"
stdout: 2

====

- run-description: Acute toxicity, Alamar blue cell viability, NIH 3T3
- Type: cell-based
- condition-set: mouse
Catalogue of CC50 values
// unit must come after the numeric part

Record excerpt, results attached:
# item-smiles, CC50
measured = [
    ("CCCc1cc(N(C)C2CCCCC2)nc2nc(N)nc(N)c12", "9.9 µM"),
    ("COc1cc(CN(C)c2cc(C)c3c(N)nc(N)nc3n2)cc(OC)c1", "14.6 µM"),
    ("COc1ccc(CN(C)c2cc(C)c3c(N)nc(N)nc3n2)cc1OC", "13.2 µM"),
    ("Cc1cc(N2Cc3ccccc3C2)nc2nc(N)nc(N)c12", "8.09 µM"),
    ("Cc1c(Cc2ccccc2)c(NCc2ccc(F)c(F)c2)nc2nc(N)nc(N)c12", "2.94 µM"),
]

Here is another compound to look at.
stdin: Param item = "Cc1cc(NCc2ccc(F)cc2)nc2nc(N)nc(N)c12" ; retrieve measured CC50.
stdout: 8.14 µM

====

- System: Haemophilus influenzae ATCC 49766
- run-description: MIC, broth microdilution (CLSI), H. influenzae
- Type: cell-based
- Parameters: unit not given beside the values
measured-quantity: MIC H. influenzae
Answer using only a numeral; do not append any unit.

stdin: If you can, please state the reported MIC H. influenzae value of "Cc1cc(NCc2ccc(C(F)(F)F)cc2)nc2nc(N)nc(N)c12" .
stdout: 16

stdin: Quick one: MIC H. influenzae of "Nc1nc(N)c2c3c(c(NCc4cc(F)cc(F)c4)nc2n1)CCCC3" ?
stdout: 32

stdin: Could you tell me which MIC H. influenzae is on file for "CCCCc1c(NCc2ccc(F)c(F)c2)nc2nc(N)nc(N)c2c1C" ?
stdout: 16

stdin: Which MIC H. influenzae value belongs to "Cc1cc(NCc2ccc(F)cc2)nc2nc(N)nc(N)c12" ?
stdout: 2

====

- run-description: Acute toxicity, Alamar blue cell viability, HepG2
- Assay type: cell-based
- condition-set: human; HepG2 cells; Alamar blue; 50% inhibition of cell growth; read-out: Acute Tox LC50 μM/ HepG2
measured-quantity: CC50

stdin: Tell me the measured CC50 of Cc1cc(NCc2cc(F)c(F)c(F)c2)nc2nc([N+](=O)[O-])nc([N+](=O)[O-])c12 [VIII-a] , please.
stdout: > 30.8 µM

stdin: Reported CC50, compound Cc1cc(NCc2cc(F)cc(C(F)(F)F)c2)nc2nc([N+](=O)[O-])nc([N+](=O)[O-])c12 [VIII-b] : ____
stdout: > 16.4 µM

====

- Tested on: Escherichia coli ATCC 25922
- run-description: MIC, broth microdilution (CLSI), E. coli ATCC 25922
- Assay type: cell-based
MIC E. coli ATCC 25922 overview
Keep it simple and answer with nothing but the number.

Below, 10 molecules whose answers are already recorded.
# molecule, measured-value
records = [
    ("COc1cc(CN(C)c2cc(C)c3c(N)nc(N)nc3n2)cc(OC)c1 [IV-c]", 16),
    ("CCCCc1c(NCc2ccc(F)c(F)c2)nc2nc(N)nc(N)c2c1C [II-d]", 32),
    ("Cc1cc(NCc2ccc3c(c2)OCO3)nc2nc(N)nc(N)c12 [III-m]", 64),
    ("Cc1cc(NCc2ccc(Cl)c(C(F)(F)F)c2)nc2nc(N)nc(N)c12 [III-f]", 16),
    ("Cc1cc(NCc2cccc(C(F)(F)F)c2F)nc2nc(N)nc(N)c12 [III-g]", 16),
    ("Cc1cc(NCc2cc(C(F)(F)F)ccc2F)nc2nc(N)nc(N)c12 [III-k]", 32),
    ("Cc1cc(NCc2ccc(C(F)(F)F)cc2F)nc2nc(N)nc(N)c12 [III-h]", 16),
    ("Cc1cc(N2CCCc3ccccc32)nc2nc(N)nc(N)c12 [V-a]", 64),
    ("Cc1cc(NCc2cc(F)c(F)c(F)c2)nc2nc([N+](=O)[O-])nc([N+](=O)[O-])c12 [VIII-a]", 64),
    ("Cc1cc(NCc2cc(C(F)(F)F)cc(C(F)(F)F)c2)nc2nc(N)nc(N)c12 [III-d]", 16),
]

stdin: Using the record for Cc1cc(NCc2ccc(C(F)(F)F)cc2)nc2nc(N)nc(N)c12 [III-c] , report its MIC E. coli ATCC 25922.
stdout: 16

stdin: Query (molecule): Cc1cc(N(C)C2CCCCC2)nc2nc(N)nc(N)c12 [IV-d] ; field requested: MIC E. coli ATCC 25922
stdout: 64

stdin: Requested read-out: MIC E. coli ATCC 25922. Entry: Nc1nc(N)c2c3c(c(NCc4cc(F)cc(F)c4)nc2n1)CCCC3 [VII-d]
stdout: 64

stdin: For the molecule shown here, Cc1cc(N2Cc3ccccc3C2)nc2nc(N)nc(N)c12 [V-b] , give the reported MIC E. coli ATCC 25922.
stdout: 64

stdin: I'd like to know its MIC E. coli ATCC 25922. The molecule in question is Cc1cc(NCc2ccc(F)cc2)nc2nc(N)nc(N)c12 [III-a]
stdout: 32

stdin: Sample COc1cc(CN(C)c2cc(C)c3c(N)nc(N)nc3n2)cc(OC)c1OC [IV-a] — what was its MIC E. coli ATCC 25922?
stdout: 15

stdin: What value of measured MIC E. coli ATCC 25922 is listed for Cc1cc(NCc2cc(F)cc(C(F)(F)F)c2)nc2nc([N+](=O)[O-])nc([N+](=O)[O-])c12 [VIII-b] ?
stdout: 64
